Quick record of pKi values for Carbonic anhydrase 9 (Homo sapiens, UniProt Q16790).
pKi: −log10 of the molar value.
measurementKind: pKi

I = CN(CCO)c1nc(Cl)nc(Nc2ccc(S(N)(=O)=O)cc2)n1
II = CN(CCO)c1nc(Nc2ccc(S(N)(=O)=O)cc2)nc(N(C)CCO)n1
III = NCCCNc1nc(NCCCN)nc(Nc2ccc(S(N)(=O)=O)cc2)n1
IV = Cc1cccc(Nc2nc(Nc3ccc(S(N)(=O)=O)cc3)nc(N3CCOCC3)n2)c1
(Q) Sort the molecules on pKi; start with the lowest figure. Returns: the labels arranged in the requested order.
(A) III, IV, II, I
(III: 7.74, IV: 7.99, II: 8.23, I: 8.92)
